assay: The area under the curve of compound was measured at the dose of 100 umol/kg; format: ADME, organism-based; conditions: rat, in vivo
metric: AUC

Query: Would you mind telling me what AUC value was observed for C[C@@](O)(C(=O)Nc1ccc(C(=O)O)cc1Cl)C(F)(F)F ?
Response: 143 µM·h

---

test: The maximum concentration of compound was measured at the dose of 300 umol/kg; type: ADME, organism-based; design: dose 300 umol/kg; conditions: rat, in vivo
metric: Cmax (µM)
Answers are plain numbers, in µM.

Query: Need Cmax of C[C@@](O)(C(=O)Nc1ccc(S(=O)(=O)N2CCNCC2)cc1Cl)C(F)(F)F , thanks.
Response: 53.8

---

target: pyruvate dehydrogenase kinase (Sus scrofa); experiment: In vitro inhibitory activity against Pyruvate dehydrogenase kinase by primary enzymatic assay
Could you please report measured log10(IC50) for the items listed next?
Note the log scale: values are log10 of IC50 expressed in nM.

[[record]]
smiles_str = "C[C@@](O)(C(=O)Nc1ccc(C(=O)N2CCCCC2)cc1Cl)C(F)(F)F"
endpoint_result = 3.18

[[record]]
smiles_str = "C[C@@](O)(C(=O)Nc1ccccc1)C(F)(F)F"
endpoint_result = 4.54

[[record]]
smiles_str = "C[C@@](O)(C(=O)Nc1ccc(S(=O)(=O)N2CCCCC2)cc1)C(F)(F)F"
endpoint_result = 3.97


Provide the reported log10(IC50) of each entry below, same order.
1. C[C@@](O)(C(=O)Nc1ccc(C(=O)c2ccccc2)cc1Cl)C(F)(F)F
2. C[C@@H]1CN(C(=O)[C@@](C)(O)C(F)(F)F)[C@@H](C)CN1Cc1ccccc1
3. C[C@](O)(C(=O)NC1CCCCC1)C(F)(F)F
4. C[C@@H]1CN(C(=O)[C@@](C)(O)C(F)(F)F)CCN1C(=O)c1ccc(C#N)cc1

Response:
1: 2.04; 2: 1.91; 3: 5.30; 4: 1.90

---

experiment: The time to reach maximum concentration of compound was measured at the dose of 100 umol/kg; type: ADME, organism-based; conditions: rat, in vivo
metric: Tmax (min)
Give bare numbers, in min.

Query: For C[C@@](O)(C(=O)Nc1ccc(C(=O)O)cc1Cl)C(F)(F)F , what is its reported Tmax?
Response: 30

---

biological target: Pyruvate dehydrogenase kinase (Homo sapiens, UniProt Q15119+Q15120+Q16654+Q15118); assay: […] inhibion of pyruvate dehydrogenase kinase, increased oxidation of lactate; assay type: functional
metric: log10(EC50) (log10 of the value in µM)
Hey, these are logged values: log10 of EC50, µM being the unit before logging.

Sample answers from the record:
[[record]]
smiles_str = "C[C@@H]1CN(C(=O)[C@@](C)(O)C(F)(F)F)CCN1C(=O)c1ccc(C#N)cc1"
assay_system = "Pyruvate dehydrogenase kinase (Homo sapiens, UniProt Q15119+Q15120+Q16654+Q15118)"
metric = "log10(EC50)"
endpoint_result = -0.60

[[record]]
smiles_str = "C[C@@H]1CN(C(=O)[C@@](C)(O)C(F)(F)F)[C@@H](C)CN1C(=O)c1ccc(C#N)cc1"
assay_system = "Pyruvate dehydrogenase kinase (Homo sapiens, UniProt Q15119+Q15120+Q16654+Q15118)"
metric = "log10(EC50)"
endpoint_result = -1.24

[[record]]
smiles_str = "C[C@@](O)(C(=O)Nc1ccccc1Cl)C(F)(F)F"
assay_system = "Pyruvate dehydrogenase kinase (Homo sapiens, UniProt Q15119+Q15120+Q16654+Q15118)"
metric = "log10(EC50)"
endpoint_result = 0.73

[[record]]
smiles_str = "C[C@@](O)(C(=O)Nc1ccc(C(=O)O)cc1Cl)C(F)(F)F"
assay_system = "Pyruvate dehydrogenase kinase (Homo sapiens, UniProt Q15119+Q15120+Q16654+Q15118)"
metric = "log10(EC50)"
endpoint_result = 0.15

[[record]]
smiles_str = "C[C@@](O)(C(=O)Nc1ccc(S(=O)(=O)N2CCNCC2)cc1Cl)C(F)(F)F"
assay_system = "Pyruvate dehydrogenase kinase (Homo sapiens, UniProt Q15119+Q15120+Q16654+Q15118)"
metric = "log10(EC50)"
endpoint_result = 1.23


Moving on to the next compound.
Query: # query: log10(EC50) of entry C[C@@](O)(C(=O)Nc1ccc(C(=O)N2CCCCC2)cc1Cl)C(F)(F)F
Response: -0.23
